Molecular target: Histone deacetylase 1 (Homo sapiens)
Sequence (Q13547 whole entry, the tested form may be a part): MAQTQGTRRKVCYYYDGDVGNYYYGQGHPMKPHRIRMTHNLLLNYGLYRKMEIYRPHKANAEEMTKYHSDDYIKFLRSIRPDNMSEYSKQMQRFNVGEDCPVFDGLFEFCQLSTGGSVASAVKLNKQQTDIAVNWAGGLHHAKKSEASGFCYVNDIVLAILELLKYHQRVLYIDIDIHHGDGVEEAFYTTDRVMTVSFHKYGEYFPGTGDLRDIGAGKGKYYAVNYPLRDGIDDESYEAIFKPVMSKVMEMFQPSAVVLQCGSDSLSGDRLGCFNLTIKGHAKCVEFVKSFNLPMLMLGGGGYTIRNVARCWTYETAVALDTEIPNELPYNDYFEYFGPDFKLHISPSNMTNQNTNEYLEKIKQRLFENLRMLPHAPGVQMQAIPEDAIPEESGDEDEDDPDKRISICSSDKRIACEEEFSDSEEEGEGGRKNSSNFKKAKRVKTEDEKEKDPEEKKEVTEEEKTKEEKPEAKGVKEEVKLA
Assay: Inhibition of recombinant human full length HDAC1 expressed in baculovirus infected Sf9 insect cells using biotinylated lysine 9 acetylated histone H3 (1 to 21 residues) as substrate incubated for 5 mins followed by substrate addition measured after 60 mins by HTRF assay
endpoint-label: pIC50
// field semantics: pIC50 = negative decimal log of concentration (mol/L)

Data request: What value of pIC50 has been recorded for this entry: "Cn1cc(-c2ccc(=O)n(CCOc3ccnc4cc(OCCCCCC(=O)Nc5ccccc5N)ccc34)n2)cn1"
Data returned: 6.66

Data request: What does the data say about its pIC50? Entry: "Cn1cc(-c2ccc(=O)n(CCOc3ccnc4cc(OCCCOc5ccc(C(=O)Nc6ccccc6N)nc5)ccc34)n2)cn1"
Data returned: 7.42

Data request: Using the record for "Cn1cc(-c2ccc(=O)n(CCOc3ccnc4cc(-c5ccc(C(=O)Nc6ccccc6N)s5)ccc34)n2)cn1" , report its pIC50.
Data returned: 6.33

Data request: Consider the compound shown here: "Cn1cc(-c2ccc(=O)n(CCOc3ccnc4cc(Nc5ccc(C(=O)Nc6ccccc6N)nc5)ccc34)n2)cn1" What is its recorded pIC50?
Data returned: 6.89

Data request: Consider the compound shown here: "Cn1cc(-c2ccc(=O)n(CCOc3ccnc4cc(OCc5ccc(C(=O)Nc6ccccc6N)cc5)ccc34)n2)cn1" What is its recorded pIC50?
Data returned: 6.81

Data request: Field request: pIC50 | item: "Cn1cc(-c2ccc(=O)n(CCOc3ccnc4cc(OCc5ccc(/C=C/C(=O)Nc6ccccc6N)nc5)ccc34)n2)cn1"
Data returned: 6.20

----------
Target: Histone deacetylase 1 (Homo sapiens)
Assay: Inhibition of recombinant human full length HDAC1 expressed in baculovirus infected Sf9 insect cells using biotinylated lysine 9 acetylated histone H3 (1 to 21 residues) as substrate incubated for 5 mins followed by substrate addition measured after 60 mins by HTRF assay
Can you tell me pIC50 for the items I'm about to list?
// pIC50: -log10(molar conc.)

Data request: What measured pIC50 goes with "Cn1cc(-c2ccc(=O)n(CCOc3ccnc4cc(OCCCCCC(=O)NO)ccc34)n2)cn1" ?
Data returned: 6.67

Data request: Given the compound "Cn1cc(-c2ccc(=O)n(CCOc3ccnc4cc(OCCCCCCC(=O)NO)ccc34)n2)cn1" , what is its reported pIC50?
Data returned: 7.74

Data request: Looking for the measured pIC50 of "Cn1cc(-c2ccc(=O)n(CCOc3ccnc4cc(OCCCCCS)ccc34)n2)cn1" , can you help?
Data returned: 6.48
